assay: soluble on expression in E. coli; label from the status in PepcDB or PDB records
quantity: soluble on expression in E. coli

Known results for sequences:
>  <residueSequence>
GPGSMQRGFCRVGTVTVSQAQKRAAELINSSDGFCSNVMRTVQFTPTGVKACDGESMGFSWRANQRALNGFRSTHGGALAILADTFTQIHLGAARPAAEFRSVSFEINYLEAIPENAECTCITRIVGDGESDIHHVEYSFQDERRRKVFSRGTHVLSCTK

>  <soluble on expression in E. coli>
soluble

$$$$
>  <residueSequence>
SLAHIVTLNTPLREDWLAQLADVVTNPDELLHLLQIEADENLRAGQDARRLFALRVPRAFIARMEKGNPDDPLLRQVLTSRDEFIVAPGFSTDPLEEQHSVVPGLLHKYQNRALLLVKGGCAVNCRYCFRRHFPYAENQGNKRNWTVALEYIAAHPELDEIIFSGGDPLMAKDHELDWLLTQLEAIKHVKRLRIHSRLPIVIPARITDELVARFDQSRLQILLVNHINHANEVDEAFGLAMKKLRHVGVTLLNQSVLLRGVNDNARTLANLSNALFDAGVMPYYLHVLDKVQGAAHFMVTDDEARQIMRELLTLVSGYMVPRLAREIGGEPSKTPLDLQLRQC

>  <soluble on expression in E. coli>
not soluble

$$$$
>  <residueSequence>
MERMRSIWKGSIAFGLVNVPVKVYSATEDHDIRFHQVHAKDGGRIKYNRVCSECGNVVQYADIDKAYDSDDGVRVVLTDDDFGKLPAAEKHEIPVLQFVPTEQIDPILFEKSYFLEPDSSSPKAYVLLATALENSDRTALVHFTLRQRTRLAAMRSRDGVLVIQTLLWPDEVRVAEFSSLDGVDK

>  <soluble on expression in E. coli>
not soluble

$$$$
>  <residueSequence>
MEIEVKFRVNFEDIKRKIEGLGAKFFGIEEQEDVYFELPSPKLLRVRKINNTGKSYITYKEILDKRNEEFYELEFEVQDPEGAIELFKRLGFKVQGVVKKRRWIYKLNNVTFELNRVEKAGDFLDIEVITSNPEEGKKIIWDVARRLGLKEEDVEPKLYIELINGLEHHHHHH

>  <soluble on expression in E. coli>
soluble

$$$$
>  <residueSequence>
MSLNSIQHIRKAEIHVHLEATIGPDLCRKFAKRNKVTLTDDIFGSQYAYAWDDFYDFIKKYDLVTSVIHTPEDYRELTYSYLKECAKNNVLYVEAMISSTHAKLKGMSYHSFLEGVAEGSKQAEDEFGIISKYIMNGIRHLGPESVQKTAEEVLEFPHKDLVGFGLAGDELHFPPKLFTKTFDMLKEANFPITVHAGEWDGPENIRHAINLLHPTRLGHGVRSIEDPDLVKEIIDKDIILETCPTSNIATKIYEDYKSHPVKTLFDQGVKVTVNSDDPPFFNATIQGEYKVMEDLGLNEKELTSLTHNAIKYSFCDEENKNELLAKLNEGHHHHHH

>  <soluble on expression in E. coli>
soluble

$$$$
>  <residueSequence>
RAAIHDIATPVAIVDEQGRVVNLNAAAEQMLAVDKHEALTEPLNDFLGGDDIATDGGSSRVSIEADGRHREYKVQQTALRDETGTQLGYTVVFQDIT

>  <soluble on expression in E. coli>
soluble

$$$$
>  <residueSequence>
MGSDKIHHHHHHMTLFLQKGYEETTMREIVHKSGRSKGAIYHHFSSKQEILNFQISLEMDNLRQCLDALISNNQLNAQQKFKGILTYFFENPSLTELTRLHWAEKLPFALLETLKNSLTVVAQYIEAIIQQEIKEKKLNCQYSKELSEILVLLFDIWLDPSIVDFDYQTACQRIDFIALLLEKFDLPLLDENDKNKLKNGLKHYDEKNTL

>  <soluble on expression in E. coli>
not soluble

$$$$
>  <residueSequence>
MGSDKIHHHHHHMFQLHHKLAADSFLVGDFPLSTCRLINDCQFPWLILVPRVSGIKELYELSEADQTQFLRESSWLSSQLAKTFQADKMNVAALGNQVPQLHFHHIVRYQNDMQWPNPVWGIPAVPYSKEVLAQMQQTLMMALRGHHQMPFDWQM

>  <soluble on expression in E. coli>
not soluble

$$$$
>  <residueSequence>
MIRLPLLPTVIKNLFKKPATNPFPKTEPVPVPEDFRGKLVYNVDKCVGCRMCVTVCPAGVFVYLPEIRKVTLWIGRCVMCKQCVDVCPTAALQMSDEFLLASYDKYDAKLIYLTPEEAEDIKKKLEEANKAKAEKQASK

>  <soluble on expression in E. coli>
not soluble

$$$$
>  <residueSequence>
MSLNRIAFSAAHVVADPLAASDPWLEAAIDWDHTIAYRQRLWDLGLGVAEAMDTAQRGMGLDWPTSLDLIRRSVEAAKAHGPEALVFSGAGTDHLAPEAARSLDDVIRAYEEQVAAVEKVGGRIILMASRALARIGTSAADYETVYGRILSQVREPVIIHWLGDMFDPALAGYWGTRDLDAAMDTAVAIINAHAAKVDGVKISLLDKDKEIAMRRRLDPAVRMYTGDDFNYAELVAGDAQGYSHALLGIFDAIAPAASAALTALAAGDEAGFHDILAPTVPLSRHIFRAPTRFYKTGVVFMAYLNGHQDHFTMVGGQESARSTLHLAELFRLADRAGLLTDPDLAVQRMRAVLAVRGVEAEGHHHHHH

>  <soluble on expression in E. coli>
not soluble

$$$$

Data request: Tell me measured soluble on expression in E. coli for MKSVKNSWNSSIKDGEYQRKESQFRNWITTDGSAGITGRGGFQAEAGRYHLYVSLACPWAHRTLIFRQLKGLEDLITVSVVHPDMHENGWSFKHDEESAKLYGTTGDNLYDGKFISEKYLAQDPDYSGVNSVPVLWDKKDKVIVNNESSEIIRMFNSAFNDITGNTLDFYPEHLREKIDHENELVYHKINNGVYKTGFATTQEAYDKNVNELFAALEQIDEKLSKQRYLTGDEITEADWRLWATLVRFDSVYHTHFKCNLKLIKEFSNIYNYMLELFQVPNVAKTVNEAHIKRHYYASHVAINPYGIVPIAHQQDWTAQHNRDKQFS please.
Data returned: not soluble

Data request: Tell me measured soluble on expression in E. coli for MLRRGLSRPEPRLLSKRYLSSATGGGSAGTTEGGSSETTPLRPRPNALTDEIIRVDHAGELGADRIYAGQMAILGNGPLGKTIGHMWEQEKEHRKQFEQLIQQHRVRPTIMTPIWNVAGFVLGAGTALMGEKAAMACTVAVETVIVEHYNDQLRQIMEAPNPDKELLATITKFRDEEQEHHDTGIDHGAEQAPFYQAMTEVIKFGCKTAIAISKKILEHHHHHH please.
Data returned: not soluble
